All figures here come from patent US20230278972A1.

System: corn (Zea mays)
methodDescription: Test A1 postemergence, corn
Assay type: in vivo
assaySetup: Postemergence, 125 g ai/ha; 0 to 100 scale
As shown below, each of these molecules has a reported Plant response rating, Corn value.

Worked cases, Plant response rating, Corn given:
# molecule, Plant response rating, Corn
data = [
    ("Cc1c(NS(=O)(=O)C(F)(F)F)cc(C(=O)N2CC(C)OC(C)C2)c(C)c1C (stereo not shown)", 40),
    ("Cc1cc(C)c(N(C(=O)OCC(C)C)S(=O)(=O)C(F)(F)F)cc1C1=NOC2CCCC12 (stereo not shown)", 0),
    ("CCOC(=O)N(c1cc(C(=O)N2CCCCC2)c(C)c(C)c1C)S(=O)(=O)C(F)(F)F", 10),
]

Please examine the following record next.
Exercise: Query the reported Plant response rating, Corn for corn (Zea mays); item: Cc1c(C(=O)N2CCSCC2)cc(N(COC(=O)C(C)(C)C)S(=O)(=O)C(F)(F)F)c(C)c1C
Solution: 0

###

Reported pest or weed control at 500 g/ha values for a set of molecules
Tested on: barnyardgrass (Echinochloa crus-galli)
methodDescription: Test A preemergence, barnyardgrass
Assay type: in vivo
assaySetup: Echinochloa crus-galli, pre-emergence, 240 h; Preemergence, 500 g ai/ha; 0 to 100 scale (0 no effect, 100 complete control); read-out: Plant response rating, Barnyardgrass
Please append the unit to your numeric answer.

The cases that follow already have their pest or weed control at 500 g/ha on record.
# molecule, pest or weed control at 500 g/ha
records = [
    ("Cc1cc(Cl)c(NS(=O)(=O)C(F)(F)F)cc1C(=O)N1CCOCC1", "100%"),
    ("Cc1c(NS(=O)(=O)C(F)(F)F)cc(C(=O)N(C)C)c(C)c1F", "100%"),
    ("Cc1cc(C)c(C2=NOC3(CCCCC3)C2)cc1NS(=O)(=O)C(F)(F)F", "100%"),
]

Exercise: What value of pest or weed control at 500 g/ha has been recorded for this entry: Cc1cc(C)c(C2=NOC3COCCC23)cc1NS(=O)(=O)C(F)(F)F (centres unmarked)
Solution: 90%

Exercise: I'd like to know its pest or weed control at 500 g/ha. The molecule in question is Cc1c(NS(=O)(=O)C(F)(F)F)cc(C(=O)N2CCOCC2)c(C)c1F
Solution: 100%

###

Test system: Ryegrass, Italian (Italian ryegrass, Lolium multiflorum)
methodDescription: Test A preemergence, Ryegrass, Italian
Type: in vivo
assaySetup: Preemergence, 1000 g ai/ha; 0 to 100 scale (0 no effect, 100 complete control)
Recorded Plant response rating, Ryegrass, Italian for the following compounds

Please review the entries below; each comes with its answer.
# structureString, testResult
records = [
    ("Cc1ccc(C(=O)N2CCC(C(C)(C)C)CC2)cc1NS(=O)(=O)C(F)(F)F", 20),
    ("Cc1cc(C)c(C(=O)N2CCC(C)CC2)cc1NS(=O)(=O)C(F)(F)F", 100),
    ("Cc1ccc(C(=O)N2CCC(C(F)(F)F)CC2)cc1NS(=O)(=O)C(F)(F)F", 50),
]

Exercise: Consider the compound Cc1ccc(C(=O)N2CCC(C)CC2)cc1NS(=O)(=O)C(F)(F)F and give its measured Plant response rating, Ryegrass, Italian.
Solution: 60

Exercise: Record request: Plant response rating, Ryegrass, Italian value, item Cc1cc(C)c(N(S(=O)(=O)C(F)(F)F)S(=O)(=O)C(F)(F)F)cc1C(=O)N1CCSCC1
Solution: 100

Exercise: If you can, please state the reported Plant response rating, Ryegrass, Italian value of Cc1cc(C)c(C(=O)N2CCN(C)CC2)cc1NS(=O)(=O)C(F)(F)F .
Solution: 90

###

Tested on: barnyardgrass (Echinochloa crus-galli)
methodDescription: Test A postemergence, barnyardgrass
Type: in vivo
assaySetup: Postemergence, 1000 g ai/ha; visual injury, 0 to 100 scale (0 no effect, 100 complete control), approx. 10 days
Measured Plant response rating, Barnyardgrass, listed per entry for reference.
# answer = number (no unit)

Consider the reported Plant response rating, Barnyardgrass for these compounds:
# compound, assayEndpoint, testResult
rows = [
    ("Cc1cc(C)c(C(=O)N2CCC(F)CC2)cc1NS(=O)(=O)C(F)(F)F [Compound 8]", "Plant response rating, Barnyardgrass", 80),
    ("Cc1cc(C)c(C(=O)N2CCSCC2)cc1NS(=O)(=O)C(F)(F)F [Compound 12]", "Plant response rating, Barnyardgrass", 80),
    ("COC(=O)C1CCN(C(=O)c2cc(NS(=O)(=O)C(F)(F)F)c(C)cc2C)CC1 [Compound 50]", "Plant response rating, Barnyardgrass", 60),
]

Exercise: Reported Plant response rating, Barnyardgrass for Cc1ccc(C(=O)N2CCC(C)CC2)cc1NS(=O)(=O)C(F)(F)F [Compound 7] : what is it?
Solution: 20

Exercise: Consider the compound Cc1cc(C)c(C(=O)N2CCC(Cl)CC2)cc1NS(=O)(=O)C(F)(F)F [Compound 242] and give its measured Plant response rating, Barnyardgrass.
Solution: 90

Exercise: What value of measured Plant response rating, Barnyardgrass is listed for Cc1cc(C)c(C(=O)N2CCC(C(C)(C)C)CC2)cc1NS(=O)(=O)C(F)(F)F [Compound 261] ?
Solution: 0

###

# maps each entry to its Plant response rating, Pigweed
Tested on: pigweed (Amaranthus retroflexus)
methodDescription: Test A preemergence, pigweed
Format: in vivo
assaySetup: 500 g ai/ha, 0 to 100 scale (0 no effect, 100 complete control)
A bare number is all that is needed in reply.

Some solved entries appear below for comparison.
# molecule, targetEntity, testResult
records = [
    ("Cc1cc(C)c(-n2ncccc2=O)cc1NS(=O)(=O)C(F)(F)F", "pigweed (Amaranthus retroflexus)", 90),
    ("Cc1cc(C)c(N(S(=O)(=O)C(F)(F)F)S(=O)(=O)C(F)(F)F)cc1C1=NOC(C(C)(C)C)C1 (stereo not drawn)", "pigweed (Amaranthus retroflexus)", 40),
    ("CC(=O)OCN(c1cc(C2=NOC3(CCCC3)C2)c(C)cc1C)S(=O)(=O)C(F)(F)F", "pigweed (Amaranthus retroflexus)", 90),
    ("Cc1cc(C)c(C(=O)N2CCCOCC2)cc1NS(=O)(=O)C(F)(F)F", "pigweed (Amaranthus retroflexus)", 100),
    ("COc1ccnn(-c2cc(NS(=O)(=O)C(F)(F)F)c(C)cc2C)c1=O", "pigweed (Amaranthus retroflexus)", 100),
]

Exercise: // lookup Plant response rating, Pigweed for Cc1cc(C)c(N(S(=O)(=O)C(F)(F)F)S(=O)(=O)C(F)(F)F)cc1-c1cc(C(F)(F)F)nn(C)c1=O
Solution: 80

Exercise: I am curious: what Plant response rating, Pigweed value has been reported for Cc1cc(Cl)c(N(S(=O)(=O)C(F)(F)F)S(=O)(=O)C(F)(F)F)cc1C(=O)N1CCC(Cl)CC1 ?
Solution: 100

Exercise: Using the record for Cc1cc(-c2cc(NS(=O)(=O)C(F)(F)F)c(C)cc2C)c(=O)n(C)n1 , report its Plant response rating, Pigweed.
Solution: 90

Exercise: Look up Plant response rating, Pigweed: COC(=O)N(c1cc(-c2ccnn(C)c2=O)c(C)cc1C)S(=O)(=O)C(F)(F)F
Solution: 0

###

# Kochia plant response rating values compiled below
System: kochia (Bassia scoparia)
methodDescription: Test A preemergence, kochia
Format: in vivo
assaySetup: Preemergence, 125 g ai/ha; visual injury on 0 to 100 scale (0 no effect, 100 complete control), approximately 10 days
Answer using only a numeral; do not append any unit.

Consider the reported Kochia plant response rating for these molecules:
# molecule, assayEndpoint, testResult
records = [
    ("Cc1cc(C)c(C2=NOC3(C2)CC(C)OC(C)C3)cc1NS(=O)(=O)C(F)(F)F (single isomer, unassigned) [Compound 171]", "Kochia plant response rating", 70),
    ("Cc1c(NS(=O)(=O)C(F)(F)F)cc(C(=O)N2CCC(F)CC2)c(C)c1F [Compound 109]", "Kochia plant response rating", 90),
    ("COC(=O)N(c1cc(C(=O)N2CCCC(OC)C2)c(C)cc1C)S(=O)(=O)C(F)(F)F (centres unmarked) [Compound 115]", "Kochia plant response rating", 40),
    ("Cc1cc(C#N)c(C(=O)N2CCCCC2)cc1NS(=O)(=O)C(F)(F)F [Compound 126]", "Kochia plant response rating", 0),
]

--- query ---
Exercise: Find the recorded Kochia plant response rating belonging to C#CCN(CC#C)C(=O)c1cc(NS(=O)(=O)C(F)(F)F)c(C)cc1C [Compound 187] and report it.
Solution: 80

###

Test system: Ryegrass, Italian (Italian ryegrass, Lolium multiflorum)
methodDescription: Test A postemergence, Ryegrass, Italian
Assay type: in vivo
assaySetup: Postemergence, 125 g ai/ha; visual injury approx. 10 days; 0 to 100 scale (0 no effect, 100 complete control)
Below, each entry is listed alongside its reported Plant response rating, Ryegrass, Italian.
Number, no unit, nothing else.

// known answers, use as guide
# compound, Plant response rating, Ryegrass, Italian
rows = [
    ("Cc1cc(C)c(C2=NOC3(C2)CC(C)(C)CC(C)(C)C3)cc1NS(=O)(=O)C(F)(F)F [Compound 122]", 0),
    ("Cc1cc(C)c(-c2cc(C(C)C)nn(C)c2=O)cc1NS(=O)(=O)C(F)(F)F [Compound 41]", 60),
]

Turning to the following compound.
Exercise: Recorded Plant response rating, Ryegrass, Italian for CCn1c(=O)c(-c2cc(NS(=O)(=O)C(F)(F)F)c(C)cc2C)cn(C)c1=O [Compound 37] , please?
Solution: 90
